# pEC50 annotations
Target system: full-length beta-Catenin (Uniprot ID P35222) (Homo sapiens (Human)) (UniProt P35222)
Sequence (P35222 whole entry): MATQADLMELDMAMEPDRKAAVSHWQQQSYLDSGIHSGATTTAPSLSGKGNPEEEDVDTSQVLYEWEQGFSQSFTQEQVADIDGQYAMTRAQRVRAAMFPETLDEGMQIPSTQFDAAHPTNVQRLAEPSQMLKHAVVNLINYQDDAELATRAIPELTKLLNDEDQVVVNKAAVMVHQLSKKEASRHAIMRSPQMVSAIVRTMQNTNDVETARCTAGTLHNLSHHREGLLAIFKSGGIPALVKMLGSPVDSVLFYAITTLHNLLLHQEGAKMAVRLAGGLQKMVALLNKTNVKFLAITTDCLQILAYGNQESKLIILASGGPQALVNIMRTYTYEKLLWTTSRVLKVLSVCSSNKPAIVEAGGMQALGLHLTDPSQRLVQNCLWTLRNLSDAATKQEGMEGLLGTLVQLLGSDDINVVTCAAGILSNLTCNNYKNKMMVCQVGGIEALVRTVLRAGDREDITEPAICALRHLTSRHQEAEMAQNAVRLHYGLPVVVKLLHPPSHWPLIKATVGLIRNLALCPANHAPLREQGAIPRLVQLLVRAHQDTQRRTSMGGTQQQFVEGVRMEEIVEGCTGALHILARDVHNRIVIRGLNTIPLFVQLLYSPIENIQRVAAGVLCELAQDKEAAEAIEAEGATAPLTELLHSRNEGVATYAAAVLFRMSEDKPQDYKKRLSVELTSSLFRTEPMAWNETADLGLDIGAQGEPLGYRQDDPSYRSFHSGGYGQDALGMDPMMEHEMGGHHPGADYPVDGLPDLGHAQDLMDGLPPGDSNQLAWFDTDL
Method description: fluorescence polarization competition; 10 nM full-length beta-catenin, competitor 10 nM 5FAM-TCF4(10-53)
pEC50: −log10 of the molar value. Starred links: 1 amine or outer side, 2 acyl side, 3 side chain; linkers in the order of their positions; H or OH if unused. Positions of bridges follow the written chain, without caps; N, C: chain ends. Non-standard residues stand in square brackets, D forms with d. Primed or numbered codes have the meaning given here. B5(4) = 2,2-bis(4-pentenyl)glycine = 2-amino-2-(pent-4-en-1-yl)hept-6-enoic acid (stitching residue), C=CCCCC(CCCC=C)(N[*:1])C(=O)[*:2]; B5 = 2-amino-2-(pent-4-en-1-yl)hept-6-enoic acid, C=CCCCC(CCCC=C)(N[*:1])C(=O)[*:2]; Phe(4-Me) = Cc1ccc(C[C@H](N)C(=O)O)cc1; 2Nal = N[C@@H](Cc1ccc2ccccc2c1)C(=O)O; Ala(cPent) = N[C@@H](CC1CCCC1)C(=O)O; Phe(2-Me) = Cc1ccccc1C[C@H](N)C(=O)O; Bta = N[C@@H](Cc1csc2ccccc12)C(=O)O; αAllylPro = C=CC[C@@]1(C(=O)O)CCCN1; 2Pal = N[C@@H](Cc1ccccn1)C(=O)O; 4Pal = N[C@@H](Cc1ccncc1)C(=O)O; S8 = C=CCCCCCC[C@](C)(N)C(=O)O
Recorded metric: pEC50

1) Ac-[αAllylPro]DA[B5(4)]DEAAFV[S8][4Pal][Bta]Q-NH2 (staple 1-4, 4-11) [I-385]
5.50
2) Ac-[αAllylPro]DA[B5(4)]DDAA[Phe(2-Me)]A[S8]F[Bta]Q-NH2 (staple 1-4, 4-11; also: later-eluting staple isomer) [I-366]
5.84
3) Ac-[αAllylPro]DA[B5(4)]DDAAFA[S8][Phe(4-Me)][Bta]Q-NH2 (staple 1-4, 4-11) [I-369]
5.64
4) Ac-[αAllylPro]DA[B5]DEAA[Ala(cPent)]V[S8]F[Bta]Q-NH2 (staple 1-4, 4-11) [I-392]
5.30
5) Ac-[αAllylPro]DA[B5]DEAA[2Pal]V[S8]F[Bta]Q-NH2 (staple 1-4, 4-11; not fully specified; printed as Ac-PL3-Asp-Ala-B5-Asp-Glu-Ala-Ala-2pyrA-Val-S8-Phe-BztA-Gln-NH2) [I-386]
5.30
6) Ac-[αAllylPro]DA[B5(4)]DDAA[2Nal]A[S8]F[Bta]Q-NH2 (staple 1-4, 4-11) [I-370]
5.81
